Source: PubChem BioAssay (Tox21)

- study target: Acetylcholinesterase (Homo sapiens) (UniProt P22303)
- Sequence (P22303 whole entry, looked up): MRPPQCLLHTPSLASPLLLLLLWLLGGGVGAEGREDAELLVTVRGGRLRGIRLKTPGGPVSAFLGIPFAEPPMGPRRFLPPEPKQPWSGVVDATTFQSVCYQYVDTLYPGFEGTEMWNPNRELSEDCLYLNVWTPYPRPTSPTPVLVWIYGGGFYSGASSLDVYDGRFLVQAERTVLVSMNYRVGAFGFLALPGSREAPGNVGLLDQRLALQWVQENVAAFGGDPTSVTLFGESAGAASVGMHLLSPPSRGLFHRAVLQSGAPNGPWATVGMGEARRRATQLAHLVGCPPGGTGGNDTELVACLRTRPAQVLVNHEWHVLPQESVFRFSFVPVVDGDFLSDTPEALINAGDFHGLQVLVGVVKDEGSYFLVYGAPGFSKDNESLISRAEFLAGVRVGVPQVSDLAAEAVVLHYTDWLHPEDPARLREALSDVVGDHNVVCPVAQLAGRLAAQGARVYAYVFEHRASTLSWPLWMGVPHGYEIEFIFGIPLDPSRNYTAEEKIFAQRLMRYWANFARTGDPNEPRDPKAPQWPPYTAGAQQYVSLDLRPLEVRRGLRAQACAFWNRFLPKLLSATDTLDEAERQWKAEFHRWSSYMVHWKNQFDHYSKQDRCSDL
- protocol: Acetylcholinesterase (AChE) small molecule antagonists: colormetric cell-based qHTS assay (AID 1347395); also: nearly all actives have a fitted effect of over 30% in size
- assay conditions: SH-SY5Y cells AChE activity, colorimetric (Ellman); series mostly up to 115 µM
Records with an inconclusive call do not appear. Calls of active or inactive are those of the source. Calls follow the shape of the full dose curve.
Use one of these outcomes when replying: active, inactive

Example entries begin here.
INSERT INTO measurements (compound, class) VALUES
  ('CCOC(C(=O)OCCN(C)C)(c1ccccc1)c1ccccc1', 'inactive'),
  ('c1ccc2sc(SNC3CCCCC3)nc2c1', 'inactive');

Assay result, entry CC(Oc1cc(Cl)c(Cl)cc1Cl)C(=O)O (centres undefined) — outcome? inactive

Hello, I am checking results. What call was entered for `CCCC[N+](CCCC)(CCCC)CCCC` ? active

What did the test return for `O=C(O)COc1cc(Cl)c(Cl)cc1Cl` ? inactive

So what was the verdict on `Oc1cccc(Cl)c1` in this test? inactive

I would be grateful if you could indicate the recorded call for CC(C)(C)NCC(O)c1ccccc1Cl (centres undefined) . inactive

For this compound, state the assay outcome: `CC(C)(C#N)C(C)(C)C#N` inactive

Tell me the assay call for `Clc1ccc2ccccc2c1` please. inactive

What call does the record list for `ClCc1ccccc1Cl` ? inactive

Called result for `CN(C)C(=O)Nc1cccc(OC(=O)NC(C)(C)C)c1` inactive

Could you please tell me the result logged for `NC(=O)CF` in this assay? inactive

Kindly provide the recorded test outcome for the following compound: `CC(C)(C)c1ccc(CCOc2ncnc3ccccc23)cc1` inactive

Tell me the assay call for `C=CCN1C[C@H](C)N([C@H](c2ccc(C(=O)N(CC)CC)cc2)c2cccc(OC)c2)C[C@H]1C` please. inactive

* * *

- study target: Acetylcholinesterase (Homo sapiens) (UniProt P22303)
- protocol: Acetylcholinesterase (AChE) small molecule antagonists: fluorescence cell-based qHTS assay (AID 1347398); also: nearly all actives have a fitted effect of over 50% in size
- assay conditions: SH-SY5Y cells; AChE activity; series mostly up to 115 µM
Records with an inconclusive call do not appear. Activity calls are given as the source filed them. The call rests on the fitted dose curve.
Output constraint: value belongs to yes (active), no (inactive)

INSERT INTO measurements (compound, study_target, class) VALUES
  ('C=CCc1ccccc1O', 'Acetylcholinesterase (Homo sapiens) (UniProt P22303)', 'no');

Would you mind telling me which call this test gave `OC[P+](CO)(CO)CO` ? no

Any idea what this test logged for CC(O)CN1CCN(CC(=O)[O-])CCN(CC(=O)[O-])CCN(CC(=O)[O-])CC1.[Gd+3] (stereo not drawn) ? no

Tell me the recorded outcome of this test for CCCC(C)(COC(N)=O)COC(=O)NC(C)C (stereo not drawn) . no

Short answer needed: outcome of this test for CCCCC1C(=O)NC(=O)N(C2CCCCC2)C1=O (stereo not drawn) ? no

Any idea what this test logged for `CC(C)OC(=O)Cc1ccccc1` ? no

Recorded test call requested for `CC[N+]1(CCOC(=O)C(O)(c2ccccc2)c2ccccc2)CCCCC1` no

What classification did `CCC(C)(C)O` end up with in this test? no

* * *

- protocol: qHTS assay to identify small molecule antagonists of the constitutive androstane receptor (CAR) signaling pathway - cell viability counter screen (AID 1224837); also: nearly all actives have a fitted effect of over 45% in size
- assay conditions: HepG2-CYP2B6-hCAR viability, CellTiter-Fluor, 23 h, co-treated with 50 nM CITCO; series mostly up to 92.4 µM
Results filed as inconclusive are left out. The source made the active and inactive calls. Calls come from the whole dose curve; as a rule, active = well fitted cell-killing curve with a large enough effect in the repeat runs; inconclusive = weak or mixed curves, or effect the other way; inactive = flat fitted curve, though single readings scatter.
readout: Potency

INSERT INTO results (compound, readout, observed_result) VALUES
  ('CCOP(=S)(S)OCC', 'Potency', 'inactive'),
  ('O=CC=O', 'Potency', 'inactive'),
  ('C1CS1', 'Potency', 'inactive'),
  ('C#CC(O)(C=CCl)CC (stereo unspecified)', 'Potency', 'inactive');

Field: Potency. Fill in for each record below.
1. CCCCC#N
2. CCCCCCCCCCCCN(C)C
3. Cc1cccc(C)c1NC1=NCCCS1

["inactive", "inactive", "inactive"]
